- Target system: DLL4 (human, UniProt Q9NR61)
- Sequence (Q9NR61 27-524): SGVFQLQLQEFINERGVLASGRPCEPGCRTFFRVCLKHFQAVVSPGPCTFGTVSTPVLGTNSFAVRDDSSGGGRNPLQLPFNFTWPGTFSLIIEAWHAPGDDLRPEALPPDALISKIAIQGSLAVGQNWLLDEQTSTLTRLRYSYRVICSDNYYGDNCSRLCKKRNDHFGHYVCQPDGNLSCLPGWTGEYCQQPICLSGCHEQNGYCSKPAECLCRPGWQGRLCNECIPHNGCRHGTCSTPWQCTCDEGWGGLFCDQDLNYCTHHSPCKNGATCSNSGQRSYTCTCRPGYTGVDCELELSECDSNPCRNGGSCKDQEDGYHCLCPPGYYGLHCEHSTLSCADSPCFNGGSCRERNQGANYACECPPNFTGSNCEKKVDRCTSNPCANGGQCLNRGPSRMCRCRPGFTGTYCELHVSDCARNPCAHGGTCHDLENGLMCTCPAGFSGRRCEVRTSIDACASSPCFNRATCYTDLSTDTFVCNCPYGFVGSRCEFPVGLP
- Test method notes: ELISA
Recorded measurements of pEC50, one per entry
pEC50 field: float, defined as -log10 of concentration (mol/L).

>  <Binder>
DVD484 DLL4 arm (antibody, DVD-Ig inner) chain 1: EVQLVESGGGLVQPGGSLRLSCAASGFTFTDNWISWVRQAPGKGLEWVGYISPNSGFTYYADSVKGRFTISADTSKNTAYLQMNSLRAEDTAVYYCARDNFGGYFDYWGQGTLVTVSS chain 2: DIQMTQSPSSLSASVGDRVTITCRASQDVSTAVAWYQQKPGKAPKLLIYSASFLYSGVPSRFSGSGSGTDFTLTISSLQPEDFATTYYCQQSYTGTVTFGQGTKVEIKR

>  <Readout>
pEC50

>  <Value reported>
8.76

$$$$

The reported pEC50 of the binder DVD511 DLL4 arm (antibody, V domains shown, DVD-Ig outer) VH: EVQLQQSGPELEKPGASVKISCKASGYSFTGYNMNWVKQSNGKSLEWIGNIDPYFGGTNYNQKFKGKATLTVDKSSSTAYMQLKSLTSEDSAVYYCARNYDYDGGCFDYWGQGTTLTVSS VL: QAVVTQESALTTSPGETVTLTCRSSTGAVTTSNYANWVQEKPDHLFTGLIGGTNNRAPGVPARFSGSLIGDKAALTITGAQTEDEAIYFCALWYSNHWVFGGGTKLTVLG was 10.00

Origin of measurements: patent US9029508
